# credit: patent US20210292414A1

# assayed.target: T1, Sortilin hSORTECDBAP (human, UniProt Q99523 78-755)
# T1 sequence: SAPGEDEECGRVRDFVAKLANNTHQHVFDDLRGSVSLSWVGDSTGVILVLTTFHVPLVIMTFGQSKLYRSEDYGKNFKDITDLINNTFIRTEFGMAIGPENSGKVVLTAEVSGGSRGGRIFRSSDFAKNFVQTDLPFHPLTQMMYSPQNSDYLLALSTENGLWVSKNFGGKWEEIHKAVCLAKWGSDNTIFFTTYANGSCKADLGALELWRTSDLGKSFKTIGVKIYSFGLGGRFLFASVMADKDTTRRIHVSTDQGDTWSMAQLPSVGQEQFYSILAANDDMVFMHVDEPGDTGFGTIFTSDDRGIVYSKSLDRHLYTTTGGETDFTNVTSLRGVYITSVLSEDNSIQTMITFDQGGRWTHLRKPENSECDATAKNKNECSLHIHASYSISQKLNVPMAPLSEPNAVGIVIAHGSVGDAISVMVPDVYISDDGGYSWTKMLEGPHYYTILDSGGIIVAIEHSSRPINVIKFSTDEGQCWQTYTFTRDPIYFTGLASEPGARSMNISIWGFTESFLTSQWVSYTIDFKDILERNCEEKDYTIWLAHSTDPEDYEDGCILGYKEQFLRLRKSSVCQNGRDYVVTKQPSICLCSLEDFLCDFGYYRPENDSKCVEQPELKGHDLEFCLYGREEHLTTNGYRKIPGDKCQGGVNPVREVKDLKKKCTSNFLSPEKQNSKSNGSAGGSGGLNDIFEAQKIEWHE
# assay.comment: BLI (Octet384RED)
property: EC50 (ng/mL)
Numbers only, in ng/mL.

Give EC50 for each of the items listed below.
1. IgG1-6003-972 (antibody, V domains shown, also called Antibody 6003-972) VH: QVQLVESGGGVVQPGRSLRLSCAASGFTFSDYAMHWVRRAPGKGLEWVVVISYDGSNKYYADSVKGRFTISRDNSKNTLYLQMNSLRAEDTAVYYCARDPSGGWYFDLWGRGTLVTVSS VL: EIVLTQSPATLSLSPGERATLSCRASQSVSSYLAWYQQKPGQAPRLLIYDASNRATGIPARFSGSGSGTDFTLTISSLEPEDFALYYCQQRSHWPRTFGQGTKVEIK
2. Antibody 6003-886 (antibody, human IgG1, V domains shown) VH: QVQLVQSGAEVKKPGASVKVSCKASGYTFTKYGISWVRQAPGQGLEWMGWISAYNGNTNYAQKLQDRVTMTTDTFTSTAYMELRSLRSDDTAVYFCARDGPLTGDFTFYGMDVWGQGTTVTVSS VL: EIVLTQSPATLSLSPGERATLSCRASQSVSSYLAWYQQKPGQAPRLLIYDASNRATGIPARFSGSGSGTDFTLTISSLEPEDFAVYYCQQRSNWPPFTFGPGTKVDIK
3. Antibody 6003-822 (antibody, human IgG1, V domains shown) VH: EVQLLESGGGLVQPGESLTLSCAASGFTLSSYAMSWVRQAPGKGLEWVSSISGRLGTTYYAASVKGRFTISRDNSKNTLYLQMNSLRAEDTAIYSCAKAPSDAFDIWGQGTMVTVSS VL: EIVLTQSPATLSLSPGERATLSCRASQSVSSYLAWYQQKPGQAPRLLIYDASNRATGIPARFSGSGSGTDFTLTISSLEPEDFAVYYCQQRSNWPIFTFGPGTKVDIK
4. Antibody 6003-799 (antibody, human IgG1, V domains shown) VH: QVQLVESGGGVVQPGRSLRLSCAASGFTFSSYGMHWVRQAPGKGLEWVTVISYDGSNKYYADSVKGRFTISRDNSKNTLYLQMNSLRAEDTAVYYCAKLTGDAFDIWGQGTMVTVSS VL: EIVLTQSPATLSLSPGERATLSCRASQSVSSYLVWYQQKPGQAPRLLIYHASNRATGIPARFSGSGSGTDFTLTISSLEPEDFAVYYCQQRSNWPRITFGQGTRLEIK

[1.35, 3.4, 1.97, 3.49]
